EXPERIMENT_SUMMARY: yeast display, Sf9 membrane polyspecificity reagent, FACS + sequencing; frameworks hold sequencing errors

SEQUENCE_ENTRY: QVQLVESGGGLVQAGGSLRLICAASGSTFVSNAMGWYRQAPGKERELVAAITVSGGRTYYADSVKGRFTISRDNAKNTVYLQMNSLKPEDTAVYYCAAQIYGKYDYWGQGTQVTVSS
polyreactivity (PSR sort gate): low polyreactivity

SEQUENCE_ENTRY: QDQLVESGGGLVQAGGSLRLSCAASGRTFYKYAMGWYRQAPGKERELVAAIRTGGGTSYADSVKGRFTISRDNAKNTVYLQMNSLKPEDTAVYYCNARGVYFWWRLDYWGQGTQVTVSS
polyreactivity (PSR sort gate): low polyreactivity

SEQUENCE_ENTRY: QVQLVESGGGLVQAGGSLRLSCAASGITFSGHAMGWYRQAPGKERELVAAITGSGGGTYYADSVMGRFTISRDNAKNTVYLQMNCLKPEDTAVYYCNADNYYYSGFDYWGQGTQVTVSS
polyreactivity (PSR sort gate): low polyreactivity

----------
EXPERIMENT_SUMMARY: yeast display, Sf9 membrane polyspecificity reagent, FACS + sequencing; frameworks hold sequencing errors

SEQUENCE_ENTRY: QVQLVESGGGLVQAGGSLRLICAASGRIFRYNALGWYRQAPGKERELVATISGTSRTKYADSVKGRFTISRDNAKHTVYLQMNSLKPEDTAVYYCAARRYGWGRAQSSASYDHWGQGTQVTVSS
polyreactivity (PSR sort gate): high polyreactivity
//
SEQUENCE_ENTRY: QVQLVESGGGLVQAGGSLRLSCAASGRIFNRNVMGWYRQAPGKERELVAAISYGTGSTYYADSVKGRFTISRDNAKNTVYLQMNSLKPEDTAVYYCATRYRVRDDGEYDYWGHGTQVTVSS
polyreactivity (PSR sort gate): high polyreactivity
//
SEQUENCE_ENTRY: QVQLVESGGGLVQAGGSIRLSCAASGRTLPEYVMGWYRQAPGKERELVAAITTAGSTNYADSVKGRFTISRDNAKNTVYLQINCLKPEDTAVYYCAGTTRSRGFRDIDYWGQGTQVTVSS
polyreactivity (PSR sort gate): low polyreactivity
//
SEQUENCE_ENTRY: QVQLVESGGGLVQAGGSLRLICAASGSIFPFNAMGWYRQAPGKERELVAAISSSGGSTSYADSVKGRFTISRDNAKNTVYLQMNSLKPEDTAVYYCNVRYRSAGSRYGYWGQGTQVTVSS
polyreactivity (PSR sort gate): low polyreactivity
//
SEQUENCE_ENTRY: QVQLVESGGGLVQAGGSLRLSCAASGRILASYAMGWYRQAPGKEWELVAAIRYRGSTSYADSVKGRFTISRDNAKNTVYLQMNSLKPEDTGVYYCAAKWHVRGRGARYRYDYDFWGQGTQVTVSS
polyreactivity (PSR sort gate): low polyreactivity

----------
EXPERIMENT_SUMMARY: yeast display, Sf9 membrane polyspecificity reagent, FACS + sequencing; frameworks hold sequencing errors

SEQUENCE_ENTRY: QVQLVESGGGLVQAGGSLRLSCAASGSTFRYYAMGWYRQAPGKEREMVAAISTSGGRTYYADSVKGRFTISRDNAKNTVYLQLNSLKPEDTAVYYCNARESRGYSYQTWKYYYWGQGTQVTVSS
polyreactivity (PSR sort gate): high polyreactivity
--
SEQUENCE_ENTRY: QVQLVESGGGLVQAGGSLRLSCAASGITFPQNAMGWYRQAPGKERELVATIDNVGSTNYADSVKGRFTISRDNAKNTVYLQMNSLKPEDTAGYYCAKDYDWTLDYDGYPGYDYWGQGTQVTVSS
polyreactivity (PSR sort gate): high polyreactivity
--
SEQUENCE_ENTRY: QVQLVESGGGLVQAGGSLRLSCAASGSIFYPYAMGWYRQAPGKERELLASITINDGSTYYADSVKGRFTISRDNAKNTVYLQMNSLKPEDTAVYYCNVEPVPGFGSEYEYWGQGTQVTVSS
polyreactivity (PSR sort gate): low polyreactivity
--
SEQUENCE_ENTRY: QVQLVESGGGLVQAGGSLRLSCAASGSTFYSYAMGWYRQAPGKERELVAAITRGGSTYYADSVKGRFTISRDNAKNTVYLQMNSLKPEDTAVYYCAARPWTSASYDYWGQGTQVTVSS
polyreactivity (PSR sort gate): low polyreactivity
--
SEQUENCE_ENTRY: QVQLVESGGGLVQAGGRLRLSCAASGSTFAWSAMGWYRQAPGKERELVAGIWNTGRTYYADSVKGRFTISRDNAKNTVYLQMNSLKPEDTAVYYCAALYNSPNVTYYYWGQGTQVTVSS
polyreactivity (PSR sort gate): high polyreactivity
--
SEQUENCE_ENTRY: QVQLVESGGGLVQEGGSLRLSCAASGSTFTTNVMGWYRQAPGKERELVAAISWSSGSTYYADSVTGRFTISRDNAKNTVYLQMNSLKPEDTAVYYCAARLVIFYPYSRYYYWGQGTQVTVSS
polyreactivity (PSR sort gate): high polyreactivity
--
SEQUENCE_ENTRY: QVQLVESGGGLVQAGGSLRLSSAATGSIFLSNMGWYRQAPGKERELVAAIYRNGGSTYYADSVKGRFTISRDNAKNTVYLQMNSLKPEDTAVYYCAVQRYWGQGTQVTVSS
polyreactivity (PSR sort gate): high polyreactivity
--
SEQUENCE_ENTRY: QGQLVESGGGLVQAGGSLRLSCAASGRIFRGYAMGWYRQGPGNEREWVAAFSRRGGSTYYADSVKGRFTISRDNAKNTVYLQMNSLKPVDTAVYYCNADGVHYVAYAGGYWGQGTQVTVSS
polyreactivity (PSR sort gate): high polyreactivity
--
SEQUENCE_ENTRY: QVQLEESGGGLVQAGGSLRLTCAASGRIFYRNSMGWYRQATGKERELVATISGRGGSTYYADSVKGRFTISRDNAKNTDYLQMNSLKPEDTAVYYCAVRNHGSVRWTGESWGQGTQVTVSS
polyreactivity (PSR sort gate): high polyreactivity
--
SEQUENCE_ENTRY: QVQLVESGGGLVQAGGSLRLSCAASGSIFYRNAMGWYRQAPGKERELVAAITRSDGRTYYADSVKGRFTISRDNAKNTVYLQMNSLKPEDTAVYYCNADHPFPQYEGGSWGQGTQVTVSS
polyreactivity (PSR sort gate): low polyreactivity
--
SEQUENCE_ENTRY: QVQLVESGGGLVQAGGSLRLSCAASGSLFQPNDRGWYRQAPGKERELVASIRGRGGDTYYADSVKGRFTISRDNAKNTVYLQMNSLKPEDTGGYDCAADYRWGQGTQVTVSS
polyreactivity (PSR sort gate): low polyreactivity
--
SEQUENCE_ENTRY: QVQLVESGGGLVQAGGSLRLSCAASGRIFPGYAMGWYRQAPGKERELVASIRWSGDSTYYADSVKGRFTISRDNAKNTVYLQMNSLKPEDTAVYYCNRRWYRGDYWGQGTQVTVSS
polyreactivity (PSR sort gate): low polyreactivity
--
SEQUENCE_ENTRY: QVQLVESGGGLVQAGGSLRLSCAASGRIFGGNAMGWYRQAPGKERELVAAISRNGGRTYYADSVKGRFTISRDNEKNTVYLQKNSLKPEDTAFYYCNAGYKEPHYYYWGQGTQVTVSS
polyreactivity (PSR sort gate): high polyreactivity
--
SEQUENCE_ENTRY: QVQLVESGGGLVQAGGSLRLSCAASGSIFSYYVMGWYRQAPGKERELVARINWSSTSTYYADSVKGRFTISRDNAKNTVYLQMHSLKPEDTAVYYCAAAKRYGRYYEYDYWGQGTQVTVSS
polyreactivity (PSR sort gate): high polyreactivity
--
SEQUENCE_ENTRY: QVQLVESAGGLVQAGGSLRLSCAASVSTLEYNAMGWYRQAPGNERELVAAITASGGSTYYADSVKGRFTISRDNAKKTVYLQMNSLKPDDTAVYYCATEANQRTLKDTVKDYDYWGQGTQVTVSS
polyreactivity (PSR sort gate): low polyreactivity
--
SEQUENCE_ENTRY: QVQLVESGGGLVQAGGSLRLSCAASGSIFSYYAMGWYRQSPGNERELVAAITWSGGSTNYADSVKGRFTISRDNAKNTVYLQMTSLKPEDTAVYYCAADYWAWGKNEYDYWGQGTQVTVSS
polyreactivity (PSR sort gate): low polyreactivity
--
SEQUENCE_ENTRY: QVQLVESGGGLVQAGGSLRLSCAASGRTFNRYAMGWYRQAPGKERELVAAISWRGDSTYYADSVKGRFTISRDNAKNTVYLQMNSLKPEDTAVYYCAARGNFWGQGTQVTVSS
polyreactivity (PSR sort gate): high polyreactivity
--
SEQUENCE_ENTRY: QVQLVESGGGIVQAGGSLRLSCAASGYIFKRYAMGWYRQAPWKERELVAAITGRGGSTYFADSVKGRFKISRDNAKNTVYLQMNSLKPEDTAVYYCAADGYVKGDYWGQGTQVTVSS
polyreactivity (PSR sort gate): high polyreactivity
--
SEQUENCE_ENTRY: QVHLVESGGGLVQAGGSLRLSCAASGFTIYTYAMGGYRQAPGKERELVAAISSSGGSTSYADSVKGRFTISRDNAKITDYLQMNSLKPDDTALYYCNRGWRQQLGYWGQGTQVNVSS
polyreactivity (PSR sort gate): high polyreactivity
--
SEQUENCE_ENTRY: QVQLVESGGGLVQAGGSLRLSCAASGSTFGLNTMGWYRQAPGKERELVAGITWSGGTTYYADSVKGRFTISRDNAKNTVYLQMNSLKPEDTAVSYCAAAVSDHYWYSRAYYYWGQGTQVTVSS
polyreactivity (PSR sort gate): high polyreactivity
--
SEQUENCE_ENTRY: QVQLVESGGGLVQAGGSLRLSCAASGSIFRYYAMGWYRQAPGKEREFVAAITRSGGSTTYADSVKGRFTISRDNAKNTVYLQMNSLKPEDTAVYYCNAKSSRFQVFNYGYWGQGTQVTVSS
polyreactivity (PSR sort gate): high polyreactivity

Data credit: the nanobody polyreactivity screen of Harvey et al. (2022)
